Recorded values, source paper PMC12154458.

- experimental target: rSmTAChE (Schistosoma mansoni);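 as to Inhibition (%) Replicate A: mostly 20 µM final but a few compounds at 5 or 10 µM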
- method description: biochemical
Listed here: items and their measured Inhibition (%) Replicate A.
endpoint: Inhibition (%) Replicate A

- molecule: "CC(C)(C)c1ccc(CN2CCN(C(c3ccccc3)c3ccc(Cl)cc3)CC2)cc1 (centres unmarked) [BRD-A91444184-300-01-9]"
  value observed: 84.75
- molecule: "COCCOc1ccc2c(c1)ncn2-c1ccc2cccc(N3CCC(N)CC3)c2n1 [BRD-K43621685-001-03-3]"
  value observed: 80.31
- molecule: "COc1cccc(C#Cc2ccc([C@H]3[C@@H](C#N)N(C(=O)c4ccccn4)[C@@H]3CO)cc2)c1 [BRD-K61082257-001-01-7]"
  value observed: 65.93
- molecule: "COc1ccc(C#Cc2ccc3c(c2)O[C@@H](CN(C)S(=O)(=O)c2ccccc2F)[C@@H](C)CN([C@@H](C)CO)S3(=O)=O)cc1 [BRD-K10241968-001-01-1]"
  value observed: 63.23
- molecule: "COc1ccc(NC(=O)Nc2ccc3c(c2)[C@@H]2C[C@H](CC(=O)NCc4ccc5c(c4)OCO5)O[C@@H](CO)[C@@H]2O3)cc1 [BRD-K27599706-001-01-0]"
  value observed: 80.15
- molecule: "CCCCc1oc2ccc(NS(C)(=O)=O)cc2c1C(=O)c1ccc(OCCCN(CCCC)CCCC)cc1 [BRD-K05524748-003-04-4]"
  value observed: 74.52
- molecule: "Cc1cnc(Nc2ccc(N3CCN(C)CC3)cc2)nc1Nc1cccc(S(=O)(=O)NC(C)(C)C)c1 [TG-101209, reference compound]"
  value observed: 68.94
- molecule: "O=C(NCCCCN1CCN(c2cccc(Cl)c2Cl)CC1)c1ccc2c(c1)Cc1ccccc1-2 [BRD-K05181084-003-04-5]"
  value observed: 63.93
- molecule: "CCCCCCCCCCCC([NH2+][O-])c1cc(C)ccc1O (centres unmarked) [BRD-A37752546-001-01-9]"
  value observed: 82.45
- molecule: "CCOc1nc2cccc(C(=O)OCc3oc(=O)oc3C)c2n1Cc1ccc(-c2ccccc2-c2noc(=O)[nH]2)cc1 [BRD-K25723200-001-03-5]"
  value observed: 73.36
- molecule: "O=C(O)CCc1cc(C(=O)c2ccc(OC3CCCC3)cc2O)ccc1OCc1ccc2c(=O)[nH]oc2c1 [BRD-K84925803-001-01-9]"
  value observed: 83.68
- molecule: "COc1ccc(C#Cc2ccc3c(c2)O[C@H](CN(C)S(=O)(=O)c2ccccc2F)[C@@H](C)CN([C@@H](C)CO)S3(=O)=O)cc1 [BRD-K14241686-001-01-8]"
  value observed: 70.53
- molecule: "CCCCCCCCCCCCc1ccc(S(=O)(=O)Nc2nncs2)cc1 [BRD-K59745944-001-04-6]"
  value observed: 80.43
- molecule: "O=C(C[C@H]1C=C[C@H](NC(=O)c2ccncc2)[C@@H](CO)O1)Nc1ccc(-c2ccccc2)cc1 [BRD-K04695993-001-01-5]"
  value observed: 77.66

###

- experimental target: rSmTAChE (Schistosoma mansoni, UniProt A0A3Q0KMM5);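 as to Inhibition (%) (Average): mostly 20 µM final but a few compounds at 5 or 10 µM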
- Sequence (A0A3Q0KMM5 27-661 limits assumed): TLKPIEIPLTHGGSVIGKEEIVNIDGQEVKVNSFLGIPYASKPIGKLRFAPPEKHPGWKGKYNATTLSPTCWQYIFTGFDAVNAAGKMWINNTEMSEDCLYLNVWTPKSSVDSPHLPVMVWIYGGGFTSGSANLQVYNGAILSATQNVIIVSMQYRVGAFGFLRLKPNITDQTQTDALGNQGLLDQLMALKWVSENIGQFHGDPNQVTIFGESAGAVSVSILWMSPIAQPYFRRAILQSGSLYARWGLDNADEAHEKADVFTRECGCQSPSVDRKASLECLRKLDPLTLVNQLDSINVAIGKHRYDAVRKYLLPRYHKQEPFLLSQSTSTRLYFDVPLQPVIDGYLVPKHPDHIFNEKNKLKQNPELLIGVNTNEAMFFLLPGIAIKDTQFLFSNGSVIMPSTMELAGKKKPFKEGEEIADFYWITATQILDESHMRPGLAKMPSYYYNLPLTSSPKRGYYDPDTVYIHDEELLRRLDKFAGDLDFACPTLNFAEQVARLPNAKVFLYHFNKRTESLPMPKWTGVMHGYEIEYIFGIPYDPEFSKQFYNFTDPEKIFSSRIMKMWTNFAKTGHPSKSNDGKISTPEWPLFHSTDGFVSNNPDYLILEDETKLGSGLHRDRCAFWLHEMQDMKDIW
- method description: biochemical
endpoint: Inhibition (%) (Average)

- molecule: "Cc1cc(Oc2ccc3nc(COc4ccc(CC5SC(=O)NC5=O)cc4)n(C)c3c2)cc(C)c1N (stereo not shown) [BRD-A24560335-300-01-2]"
  value observed: 64.01
- molecule: "COC(=O)C1=C(C)NC(C)=C(C(=O)OC/C=C/c2ccccc2)C1c1cccc([N+](=O)[O-])c1 (stereo not shown) [BRD-A68083442-001-01-6]"
  value observed: 87.10
- molecule: "COc1ccc(NC(=O)Nc2ccc3c(c2)[C@@H]2C[C@H](CC(=O)NCc4ccc5c(c4)OCO5)O[C@H](CO)[C@@H]2O3)cc1 [BRD-K77518191-001-01-1]"
  value observed: 88.00
- molecule: "COC(=O)C1=C(C)NC(C)=C(C(=O)OC(C)(C)CN(C)CCC(c2ccccc2)c2ccccc2)C1c1cccc([N+](=O)[O-])c1 (stereo not shown) [BRD-A18992208-003-02-7]"
  value observed: 78.14
- molecule: "CCc1nc(-c2cccc(C)c2)c(-c2ccnc(NC(=O)c3ccccc3)c2)s1 [BRD-K52751261-001-08-7]"
  value observed: 70.66
- molecule: "C[C@H](Oc1cc(-c2cnn(C3CCNCC3)c2)cnc1N)c1c(Cl)ccc(F)c1Cl [BRD-K40308497-001-01-2]"
  value observed: 86.27
- molecule: "CCOC(=O)C1=C(C)NC(C)=C(C(=O)OCC)C1c1ccccc1/C=C/C(=O)OC(C)(C)C [BRD-K43586850-001-02-9]"
  value observed: 95.79
- molecule: "O=C(C[C@H]1C=C[C@H](NC(=O)c2ccncc2)[C@@H](CO)O1)Nc1ccc(-c2ccccc2)cc1 [BRD-K04695993-001-01-5]"
  value observed: 82.34
- molecule: "C/C=C/c1cccc(-c2nc(C(=O)NCc3ccc(OC)cc3)cc3c2[C@@H](CCO)N([S@+]([O-])C(C)(C)C)C3)c1 [BRD-K73104592-001-03-5]"
  value observed: 64.19
- molecule: "CCCN1C[C@H](CSC)C[C@@H]2c3cccc4[nH]cc(c34)C[C@H]21 [BRD-K60770992-066-25-0]"
  value observed: 71.65
- molecule: "O=C(C[C@@H]1C=C[C@@H](NC(=O)c2ccncc2)[C@H](CO)O1)Nc1ccc(-c2ccccc2)cc1 [BRD-K45095313-001-01-2]"
  value observed: 61.11
- molecule: "C[C@H](CO)N1C[C@H](C)[C@@H](CN(C)C(=O)Nc2cc(F)ccc2F)Oc2cc(-c3cccc(C#N)c3)ccc2S1(=O)=O [BRD-K72311435-001-01-2]"
  value observed: 61.10
- molecule: "COC(=O)[C@]12CCC(C)(C)C[C@@H]1[C@@H]1C(=O)C=C3[C@]4(C)C=C(C#N)C(=O)C(C)(C)[C@@H]4CC[C@@]3(C)[C@]1(C)CC2 [BRD-K69694239-001-02-2]"
  value observed: 75.78
